FYI, the data here is from ChEMBL document CHEMBL3112545.

assay: Stability of the compound assessed as intramolecular cyclization/decomposition measured over 12 months; format: physicochemical; details: 8766 h

| compound | Stability |
| --- | --- |
| CC(C)[C@H](N)C(=O)NCC1(CC(=O)O)CCCCC1 | Stable |
| C[C@H](N)C(=O)NCC1(CC(=O)O)CCCCC1 | Stable |
| CC(N)C(=O)NC(Cc1ccccc1)C(=O)NCC1(CC(=O)O)CCCCC1.Cl (racemic) | Stable |
| C[C@H](NC(=O)CN)C(=O)NCCC(=O)NCC1(CC(=O)O)CCCCC1 | Stable |
| C[C@H](NC(=O)CNC(=O)OCc1ccccc1)C(=O)NCCC(=O)NCC1(CC(=O)O)CCCCC1 | Stable |
| C[C@H](NC(=O)OC(C)(C)C)C(=O)N[C@@H](Cc1ccccc1)C(=O)NCC1(CC(=O)O)CCCCC1 | Stable |
| C[C@H](NC(=O)OCc1ccccc1)C(=O)NCC1(CC(=O)O)CCCCC1 | Stable |
| CC(C)[C@H](NC(=O)OCc1ccccc1)C(=O)NCC1(CC(=O)O)CCCCC1 | Stable |
